Target: T1, GLP-1 receptor
T1 chain: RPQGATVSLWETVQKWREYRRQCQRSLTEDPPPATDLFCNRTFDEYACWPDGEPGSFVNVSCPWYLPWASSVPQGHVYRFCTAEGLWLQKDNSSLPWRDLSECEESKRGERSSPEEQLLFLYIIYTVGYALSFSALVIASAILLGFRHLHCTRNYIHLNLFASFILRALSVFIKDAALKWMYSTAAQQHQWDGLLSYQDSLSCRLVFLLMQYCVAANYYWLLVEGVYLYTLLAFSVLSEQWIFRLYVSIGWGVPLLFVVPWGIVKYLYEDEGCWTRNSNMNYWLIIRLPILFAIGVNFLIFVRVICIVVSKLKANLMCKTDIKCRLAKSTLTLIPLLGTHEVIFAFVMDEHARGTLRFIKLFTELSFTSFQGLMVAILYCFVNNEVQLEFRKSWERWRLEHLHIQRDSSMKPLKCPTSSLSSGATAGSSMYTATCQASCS
Test: cell-based or functional assay
# cAMP production EC50 per record follows
measured parameter: cAMP production EC50 (nM)

binder	measured parameter	value unit	value measured
NICLPRWGCLWDFNPRGPHAEGTFTSDVSSYLEGQAAKEFIAWLVKGRG (ABP-LK-GLP fusion polypeptide; also called ABP-LK-GLP) [M4.2 fusion polypeptide]	cAMP production EC50	nM	21
SLLHWTHKIPALFNPRGPHAEGTFTSDVSSYLEGQAAKEFIAWLVKGRG (ABP-LK-GLP fusion polypeptide; also called ABP-LK-GLP) [M8.2 fusion polypeptide]	cAMP production EC50	nM	21
DICLPRWGCLWEFNPRGPHAEGTFTSDVSSYLEGQAAKEFIAWLVKGRG (ABP-LK-GLP fusion polypeptide; also called ABP-LK-GLP) [M3.2 fusion polypeptide]	cAMP production EC50	nM	21
LPHSHRAHSLPPFNPRPPHAEGTFTSDVSSYLEGQAAKEFIAWLVKGRG (ABP-LK-GLP fusion polypeptide; also called ABP-LK-GLP) [PP6.2 fusion polypeptide]	cAMP production EC50	nM	21
SLLHWTHKIPALFNPRGAHAEGTFTSDVSSYLEGQAAKEFIAWLVKGRG (ABP-LK-GLP fusion polypeptide; also called ABP-LK-GLP) [M8.1 fusion polypeptide]	cAMP production EC50	nM	24

Hey, just so you know, these numbers are from patent US20100075897A1.
